Cited source for all entries: the supplement of paper PMC10567573

B1: ANKRD40 (parent)
chain: YQELLRVCCCELGVNPDQVEKIRK

- Variants of: B1
- Protocol Details: protein stability index of a GFP-peptide fusion (GPS, HEK-293T) (PSI 1-6); higher = more stable;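 also: lentivirally expressed fusions sorted by FACS into six bins by GFP to DsRed ratio, PSI derived from sequencing read proportions per bin multiplied by bin number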
- Conditions Used: c terminus: a fixed tail appended
Measured protein stability index values are reported for all entries that follow.
Property Label: protein stability index

* Q2L | 1.51
* Y1I | 1.78
* N15K | 2.08
* I22W | 1.54
* R6P | 2.02
* C10H | 2.63
* R6Y | 2.18
* R6K | 1.91
* K24C | 1
* L4Y | 2.38
* R6S | 2.03
* P16R | 2.41
* E3P | 2.21
* R6M | 1.73
* P16S | 2.06
* C8T | 3.53
* C9V | 1.82
* C8G | 2.8
* D17Q | 2.94
* E11F | 2.19
* R6D | 2.56
* Y1N | 3.55
* E3Q | 1.59
* C10V | 2.1
* E3D | 1.59
* L12M | 2.05
* L4Q | 2.42
* E20K | 1.96
* E11K | 2.89
* G13K | 1.62
* Q18D | 2.73
* Y1W | 1.29
* G13P | 2.06
* E20T | 1.47
* C10Q | 2.92
* K24I | 1.6
* N15G | 1.26
* K21A | 2.02
* G13V | 1.71
* C9P | 2.59
* C9L | 1.55
* P16N | 2.4
* L12F | 2.21
* E20D | 2.94
* G13T | 2.13
* E11W | 1
